B1: LINE1-full (parent)
chain: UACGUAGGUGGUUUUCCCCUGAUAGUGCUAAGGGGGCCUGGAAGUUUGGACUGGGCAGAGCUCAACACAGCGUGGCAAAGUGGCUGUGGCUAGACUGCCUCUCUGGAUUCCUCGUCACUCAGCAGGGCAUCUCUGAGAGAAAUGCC

Variants of: B1
Test: self-cleavage, relative activity (ratio to wild type); higher = more cleavage; in vitro, sequencing; the parent is a self-cleaving ribozyme
Given measured self-cleavage, output label 1 if it is greater than or equal to 1 and label 0 if not.

Study these solved cases before continuing.
U15A U134A
label 0
A129C U134C
label 1

Task: hey, is self-cleavage for this one >= 1? U1A A50G
Result: label 0

Task: hey, is self-cleavage for this one >= 1? A6G C113U
Result: label 0

Task: hey, is self-cleavage for this one >= 1? A136G A140G
Result: label 1

Task: hey, is self-cleavage for this one >= 1? A140G A142G
Result: label 1

Task: hey, is self-cleavage for this one >= 1? U102C A117U
Result: label 1

Numbers sourced from the RNAGym collection of RNA variant scans (doi:10.7554/elife.90254).
